These data points were gathered from the FLAb antibody collection (doi:10.7554/elife.23156).

Measured Kd, listed per entry.
B1: scFv; the commonest letter at each place (parent)
chain 1: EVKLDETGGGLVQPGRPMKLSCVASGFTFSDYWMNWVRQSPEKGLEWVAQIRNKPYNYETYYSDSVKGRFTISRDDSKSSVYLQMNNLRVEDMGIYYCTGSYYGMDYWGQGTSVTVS
chain 2: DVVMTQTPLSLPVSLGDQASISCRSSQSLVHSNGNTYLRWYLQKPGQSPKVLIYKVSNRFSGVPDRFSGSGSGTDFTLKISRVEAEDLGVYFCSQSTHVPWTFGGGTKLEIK

# Variants of: B1
# test description: Kd (Tite-Seq)
# applied conditions: with fluorescein; format: scFv 4-4-20, heavy + light

>>> reported_value("chain 1 G100S")
"0.0038 µM"
>>> reported_value("chain 1 G100N Y107V")
"≥ 10 µM"
>>> reported_value("chain 1 S101Y M105T")
"≥ 10 µM"
>>> reported_value("chain 1 S101F W108F")
"≥ 10 µM"
>>> reported_value("chain 1 T28K S30H")
"0.00142 µM"

input: Requested field: Kd. Item: chain 1 Y103P Y107E
output: ≥ 10 µM

input: Requested field: Kd. Item: chain 1 S101L D106K
output: ≥ 10 µM

input: Requested field: Kd. Item: chain 1 S30F V37M
output: 0.00128 µM

input: Requested field: Kd. Item: chain 1 Y32K N35R
output: ≥ 10 µM

input: Requested field: Kd. Item: chain 1 S101R W108H
output: ≥ 10 µM

input: Requested field: Kd. Item: chain 1 S30R D31N W36A
output: ≥ 10 µM

input: Requested field: Kd. Item: chain 1 W33G V37Y
output: ≥ 10 µM

input: Requested field: Kd. Item: chain 1 G104N
output: ≥ 10 µM
